Hey, just so you know, these numbers are from ChEMBL document CHEMBL1125736.

- Species on record: Oryctolagus cuniculus
- assay summary: Tested for effective refractory period measured at a pacing rate of 3 Hz in vitro with rabbit heart tissue preparations.
- Type: functional
- Design: unit: %

- molecule: "CS(=O)(=O)Nc1ccc(C(O)CCCN2CCCCCCC2)cc1 (stereo not drawn)"
  ERP3: 23.5
- molecule: "CCCCCCCN(CC)CCCC(O)c1ccc(Cl)cc1.Cl (stereo not drawn)"
  ERP3: 14
- molecule: "CCCCCCCN(CC)CCCC(=O)c1ccc(NS(C)(=O)=O)cc1"
  ERP3: 9.4
- molecule: "CC(C)NCC(O)c1ccc(NS(C)(=O)=O)cc1.Cl (stereo not drawn) [SOTALOL HYDROCHLORIDE]"
  ERP3: 4.9
- molecule: "CCCCCCCN(CC)CCCC(O)c1cccc(NS(C)(=O)=O)c1 (stereo not drawn)"
  ERP3: 19
- molecule: "CCCCN(CCCC)CCCC(O)c1ccc(NS(C)(=O)=O)cc1 (stereo not drawn)"
  ERP3: 10.4
- molecule: "CCCCCCCNCCCC(O)c1ccc(NS(C)(=O)=O)cc1 (stereo not drawn)"
  ERP3: 6.8
- molecule: "CCCCCCCN(CC)CCCC(O)c1ccc(NS(C)(=O)=O)cc1 (stereo not drawn) [IBUTILIDE]"
  ERP3: 15.8

###

- Species: Oryctolagus cuniculus
- assay summary: Tested for conduction time measured at a pacing rate of 3 Hz in vitro with rabbit heart tissue preparations.
- Type: functional
1 if CT3 is below 0.6. -1 if not; exact matches included in -1.

- molecule: "CCCCCCC[N+](CC)(CC)CCCCc1ccc(Cl)cc1.O=P([O-])(O)O [CLOFILIUM PHOSPHATE]"
  qualitative label: 1
- molecule: "CS(=O)(=O)Nc1ccc(C(O)CCCN2CCCCCC2)cc1 (stereo not given)"
  qualitative label: 1
- molecule: "CCCCCN(CC)CCCC(O)c1ccc(NS(C)(=O)=O)cc1 (stereo not given)"
  qualitative label: -1
- molecule: "CCCCCCCCN(CC)CCCC(O)c1ccc(NS(C)(=O)=O)cc1 (stereo not given)"
  qualitative label: -1

###

# reported CT3; entries follow
- Species on record: Oryctolagus cuniculus
- assay summary: Tested for conduction time measured at a pacing rate of 3 Hz in vitro with rabbit heart tissue preparations.
- Type: functional

- compound: "CCCCCCCN(CC)CCCCc1ccc(NS(C)(=O)=O)cc1"
  CT3: 140
- compound: "CC1CCN(CCCC(O)c2ccc(NS(C)(=O)=O)cc2)CC1 (stereo unspecified)"
  CT3: -6.5
- compound: "CCCCCCCN(CC)CCCC(O)c1cccc(NS(C)(=O)=O)c1 (stereo unspecified)"
  CT3: 54
- compound: "CCCCN(CCCC)CCCC(O)c1ccc(NS(C)(=O)=O)cc1 (stereo unspecified)"
  CT3: 5.2
- compound: "CCCCCCN(CC)CCCC(O)c1ccc(NS(C)(=O)=O)cc1 (stereo unspecified)"
  CT3: 0
- compound: "CCCCCCCN(C)CCCC(O)c1ccc(NS(C)(=O)=O)cc1 (stereo unspecified)"
  CT3: 70
- compound: "CCCCCCCCCCN(CC)CCCC(O)c1ccc(NS(C)(=O)=O)cc1 (stereo unspecified)"
  CT3: 74.3
- compound: "CCCCCCCNCCCC(O)c1ccc(NS(C)(=O)=O)cc1 (stereo unspecified)"
  CT3: 8.3
- compound: "CCCCCCCN(CC)CCC(O)c1ccc(NS(C)(=O)=O)cc1 (stereo unspecified)"
  CT3: 40.3
- compound: "CS(=O)(=O)Nc1ccc(C(O)CCCN2CCCCCCC2)cc1 (stereo unspecified)"
  CT3: -4.7
- compound: "CCCCCCCN(CC)CCCC(O)c1ccc(NS(C)(=O)=O)cc1 (stereo unspecified) [IBUTILIDE]"
  CT3: 31.2
